- experimental-system: RPS6KB1 (human)
- measurement-description: KINOMEscan competition binding
- setup-conditions: compound 10.0 µM
I'd appreciate it if you could supply kinase still bound, per cent of control values for the items below.
A complete answer gives the number followed by the unit.

| smiles-code | experimental-system | kinase still bound, per cent of control |
| --- | --- | --- |
| O=c1cc(N2CCOCC2)oc2c(-c3cccc4c3sc3ccccc34)cccc12 | RPS6KB1 (human) | 67% |
| NC(=O)Nc1cc(-c2cccc(F)c2)sc1C(=O)N[C@@H]1CCCNC1 | RPS6KB1 (human) | 6.4% |
| C[C@@H](Oc1cc(-c2cnn(C3CCNCC3)c2)cnc1N)c1c(Cl)ccc(F)c1Cl | RPS6KB1 (human) | 1.8% |
| CN(C)C/C=C/C(=O)Nc1ccc(C(=O)Nc2cccc(Nc3nccc(-c4cccnc4)n3)c2)cc1 | RPS6KB1 (human) | 100% |
| CNC(=O)c1cc(Oc2ccc(NC(=O)Nc3ccc(Cl)c(C(F)(F)F)c3)cc2)ccn1 | RPS6KB1 (human) | 63% |

State the recorded kinase still bound, per cent of control for every item in the following list.
1. CCN1CCN(C(=O)Cc2ccc(Nc3ncc(F)c(Nc4ccc(C(=O)Nc5ccccc5Cl)cc4)n3)cc2)CC1
2. COCC(=O)NC/C=C/c1ccc2ncnc(Nc3ccc(Oc4ccc(C)nc4)c(C)c3)c2c1
3. N#CCNC(=O)c1ccc(-c2ccnc(Nc3ccc(N4CCOCC4)cc3)n2)cc1
4. C=CC(=O)Nc1cc(-n2c(=O)ccc3cnc4ccc(-c5cn[nH]c5)cc4c32)ccc1C
5. COc1cc2ncn(-c3cc(OCc4ccccc4C(F)(F)F)c(C(N)=O)s3)c2cc1OC

1: 39%; 2: 65%; 3: 100%; 4: 63%; 5: 65%

* * *

- experimental-system: EPHA5 (human)
- measurement-description: KINOMEscan competition binding
- setup-conditions: compound 10.0 µM
I'd appreciate it if you could supply kinase still bound, per cent of control values for the items below.
Numbers only, in %.

Study these solved cases before continuing.
| smiles-code | experimental-system | endpoint-result |
| --- | --- | --- |
| CCN(CC)CCCCNc1ncc2cc(-c3cc(OC)cc(OC)c3)c(NC(=O)NC(C)(C)C)nc2n1 | EPHA5 (human) | 100 |
| N#CCNC(=O)c1ccc(-c2ccnc(Nc3ccc(N4CCOCC4)cc3)n2)cc1 | EPHA5 (human) | 87 |
| CN(C)C/C=C/C(=O)Nc1ccc(C(=O)Nc2cccc(Nc3nccc(-c4cccnc4)n3)c2)cc1 | EPHA5 (human) | 97 |
| COc1cc2ncnc(-n3nc(-c4ccccn4)nc3N)c2cc1OC | EPHA5 (human) | 19 |
| COc1cc2ncn(-c3cc(OCc4ccccc4C(F)(F)F)c(C(N)=O)s3)c2cc1OC | EPHA5 (human) | 90 |
| CCN(CC)CCCCNc1ncc2c(n1)N(C)C(=O)N(c1c(Cl)c(OC)cc(OC)c1Cl)C2 | EPHA5 (human) | 100 |
| COc1cc(N2CCN(C)CC2)ccc1Nc1ncc2c(n1)N(C)c1ccccc1C(=O)N2C | EPHA5 (human) | 100 |
| C=CC(=O)Nc1cc(-n2c(=O)ccc3cnc4ccc(-c5cn[nH]c5)cc4c32)ccc1C | EPHA5 (human) | 100 |
| O=c1cc(N2CCOCC2)oc2c(-c3cccc4c3sc3ccccc34)cccc12 | EPHA5 (human) | 100 |
| CS(=O)(=O)N1CCN(Cc2cc3nc(-c4cccc5[nH]ncc45)nc(N4CCOCC4)c3s2)CC1 | EPHA5 (human) | 100 |

State the recorded kinase still bound, per cent of control for every item in the following list.
1. COc1ccc(N(C(=O)Oc2c(C)cccc2C)c2ccnc(Nc3ccc(N4CCN(C)CC4)cc3)n2)c(OC)c1
2. C[C@@H](Oc1cc(-c2cnn(C3CCNCC3)c2)cnc1N)c1c(Cl)ccc(F)c1Cl
3. Cc1n[nH]c2ccc(-c3cncc(OC[C@@H](N)Cc4c[nH]c5ccccc45)c3)cc12
4. CNC(=O)c1cc(Oc2ccc(NC(=O)Nc3ccc(Cl)c(C(F)(F)F)c3)cc2)ccn1
5. O=C(Nc1cccc(Nc2ncc(Br)c(NCCc3cnc[nH]3)n2)c1)N1CCCC1

1: 0.15; 2: 1.8; 3: 100; 4: 30; 5: 92

State the recorded kinase still bound, per cent of control for every item in the following list.
1. CNC(=O)c1ccc(Nc2cc(Nc3ccccc3S(=O)(=O)C(C)C)c3cc[nH]c3n2)nc1
2. CCN1CCN(C(=O)Cc2ccc(Nc3ncc(F)c(Nc4ccc(C(=O)Nc5ccccc5Cl)cc4)n3)cc2)CC1

1. 100
2. 92

* * *

- experimental-system: MAPK13 (human) (UniProt O15264)
- Sequence (O15264 whole entry, looked up): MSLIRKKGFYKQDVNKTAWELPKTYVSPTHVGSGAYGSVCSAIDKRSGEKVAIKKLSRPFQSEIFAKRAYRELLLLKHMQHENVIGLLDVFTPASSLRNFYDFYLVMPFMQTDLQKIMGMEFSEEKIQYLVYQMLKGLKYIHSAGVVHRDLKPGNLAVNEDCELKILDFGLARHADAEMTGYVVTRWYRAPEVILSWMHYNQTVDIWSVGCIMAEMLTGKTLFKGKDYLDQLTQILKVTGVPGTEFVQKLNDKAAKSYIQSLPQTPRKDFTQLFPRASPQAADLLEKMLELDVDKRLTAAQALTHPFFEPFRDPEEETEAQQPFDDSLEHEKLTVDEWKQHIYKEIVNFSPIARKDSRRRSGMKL
- measurement-description: KINOMEscan competition binding
- setup-conditions: compound 10.0 µM
reported-endpoint: kinase still bound, per cent of control (%)
One number for each entry, in %.

Study these solved cases before continuing.
| smiles-code | kinase still bound, per cent of control / % |
| --- | --- |
| CCN(CC)CCCCNc1ncc2c(n1)N(C)C(=O)N(c1c(Cl)c(OC)cc(OC)c1Cl)C2 | 100 |
| COc1ccc(N(C(=O)Oc2c(C)cccc2C)c2ccnc(Nc3ccc(N4CCN(C)CC4)cc3)n2)c(OC)c1 | 100 |
| O=C1NC(=O)/C(=C/c2ccc3nccc(-c4ccncc4)c3c2)S1 | 100 |
| CN(C)C/C=C/C(=O)Nc1ccc(C(=O)Nc2cccc(Nc3nccc(-c4cccnc4)n3)c2)cc1 | 100 |

State the recorded kinase still bound, per cent of control for every item in the following list.
1. O=c1cc(N2CCOCC2)oc2c(-c3cccc4c3sc3ccccc34)cccc12
2. CNC(=O)c1cc(Oc2ccc(NC(=O)Nc3ccc(Cl)c(C(F)(F)F)c3)cc2)ccn1
3. CCN1CCN(C(=O)Cc2ccc(Nc3ncc(F)c(Nc4ccc(C(=O)Nc5ccccc5Cl)cc4)n3)cc2)CC1
4. COc1cc(C(=O)N2CCC(N3CCN(C)CC3)CC2)ccc1Nc1ncc2c(n1)N(C)c1ccccc1C(=O)N2C
5. COc1cc(N2CCN(C)CC2)ccc1Nc1ncc2c(n1)N(C)c1ccccc1C(=O)N2C

99
7.6
100
72
100

* * *

- experimental-system: CSNK1G3 (human) (UniProt Q9Y6M4)
- Sequence (Q9Y6M4 whole entry, looked up): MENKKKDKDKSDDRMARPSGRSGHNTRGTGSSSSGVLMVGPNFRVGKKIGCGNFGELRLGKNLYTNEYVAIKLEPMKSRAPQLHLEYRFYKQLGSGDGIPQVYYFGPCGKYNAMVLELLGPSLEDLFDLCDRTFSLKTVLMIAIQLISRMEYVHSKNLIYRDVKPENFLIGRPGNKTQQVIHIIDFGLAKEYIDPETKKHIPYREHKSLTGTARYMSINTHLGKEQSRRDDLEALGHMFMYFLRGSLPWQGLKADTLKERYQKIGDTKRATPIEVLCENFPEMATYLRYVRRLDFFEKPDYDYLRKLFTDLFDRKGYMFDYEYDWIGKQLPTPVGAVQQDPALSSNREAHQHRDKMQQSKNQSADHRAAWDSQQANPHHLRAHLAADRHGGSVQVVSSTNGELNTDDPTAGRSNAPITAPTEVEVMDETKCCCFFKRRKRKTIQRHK
- measurement-description: KINOMEscan competition binding
- setup-conditions: compound 10.0 µM
reported-endpoint: kinase still bound, per cent of control (%)
Give bare numbers, in %.

| smiles-code | kinase still bound, per cent of control / % |
| --- | --- |
| COc1cc2ncn(-c3cc(OCc4ccccc4C(F)(F)F)c(C(N)=O)s3)c2cc1OC | 100 |
| Cc1n[nH]c2ccc(-c3cncc(OC[C@@H](N)Cc4c[nH]c5ccccc45)c3)cc12 | 0.15 |
| O=C1NC(=O)/C(=C/c2ccc3nccc(-c4ccncc4)c3c2)S1 | 2.4 |
| COc1cc(N2CCN(C)CC2)ccc1Nc1ncc2c(n1)N(C)c1ccccc1C(=O)N2C | 100 |

State the recorded kinase still bound, per cent of control for every item in the following list.
1. CCN(CC)CCCCNc1ncc2cc(-c3cc(OC)cc(OC)c3)c(NC(=O)NC(C)(C)C)nc2n1
2. COCC(=O)NC/C=C/c1ccc2ncnc(Nc3ccc(Oc4ccc(C)nc4)c(C)c3)c2c1
3. COc1ccc(N(C(=O)Oc2c(C)cccc2C)c2ccnc(Nc3ccc(N4CCN(C)CC4)cc3)n2)c(OC)c1
4. CNC(=O)c1ccc(Nc2cc(Nc3ccccc3S(=O)(=O)C(C)C)c3cc[nH]c3n2)nc1
5. O=c1cc(N2CCOCC2)oc2c(-c3cccc4c3sc3ccccc34)cccc12
6. CN(C)C/C=C/C(=O)Nc1ccc(C(=O)Nc2cccc(Nc3nccc(-c4cccnc4)n3)c2)cc1

1: 100; 2: 100; 3: 87; 4: 22; 5: 100; 6: 100

State the recorded kinase still bound, per cent of control for every item in the following list.
1. C[C@@H](Oc1cc(-c2cnn(C3CCNCC3)c2)cnc1N)c1c(Cl)ccc(F)c1Cl
2. O=C(Nc1cccc(Nc2ncc(Br)c(NCCc3cnc[nH]3)n2)c1)N1CCCC1
3. COc1cc2ncnc(-n3nc(-c4ccccn4)nc3N)c2cc1OC

1. 100
2. 88
3. 20

* * *

I'd appreciate it if you could supply kinase still bound, per cent of control values for the items below.
- experimental-system: UniProt P27448
- Sequence (P27448 whole entry, looked up): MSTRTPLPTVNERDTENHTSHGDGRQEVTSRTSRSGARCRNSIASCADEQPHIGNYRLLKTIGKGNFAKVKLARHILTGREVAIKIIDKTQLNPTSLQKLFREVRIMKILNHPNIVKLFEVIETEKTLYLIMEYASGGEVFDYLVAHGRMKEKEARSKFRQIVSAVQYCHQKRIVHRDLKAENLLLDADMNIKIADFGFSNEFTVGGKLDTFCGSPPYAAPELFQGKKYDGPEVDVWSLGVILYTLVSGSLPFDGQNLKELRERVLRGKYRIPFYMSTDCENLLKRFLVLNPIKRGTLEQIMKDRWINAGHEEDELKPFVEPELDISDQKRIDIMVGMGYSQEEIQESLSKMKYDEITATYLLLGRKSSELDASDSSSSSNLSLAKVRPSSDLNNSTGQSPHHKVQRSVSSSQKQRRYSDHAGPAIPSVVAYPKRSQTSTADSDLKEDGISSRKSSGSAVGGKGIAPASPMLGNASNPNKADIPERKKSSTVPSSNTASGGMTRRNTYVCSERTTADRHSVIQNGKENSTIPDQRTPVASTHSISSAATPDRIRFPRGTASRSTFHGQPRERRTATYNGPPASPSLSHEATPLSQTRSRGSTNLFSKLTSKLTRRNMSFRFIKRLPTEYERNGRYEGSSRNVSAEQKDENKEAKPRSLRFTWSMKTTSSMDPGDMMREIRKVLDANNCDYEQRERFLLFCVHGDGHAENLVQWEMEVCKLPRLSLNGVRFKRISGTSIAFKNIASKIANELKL
- measurement-description: KINOMEscan competition binding
- setup-conditions: compound 10.0 µM
Answers are plain numbers, in %.

Study these solved cases before continuing.
| smiles-code | kinase still bound, per cent of control / % |
| --- | --- |
| N#CCNC(=O)c1ccc(-c2ccnc(Nc3ccc(N4CCOCC4)cc3)n2)cc1 | 16 |
| COc1cc(N2CCN(C)CC2)ccc1Nc1ncc2c(n1)N(C)c1ccccc1C(=O)N2C | 100 |
| O=c1cc(N2CCOCC2)oc2c(-c3cccc4c3sc3ccccc34)cccc12 | 99 |
| Cc1n[nH]c2ccc(-c3cncc(OC[C@@H](N)Cc4c[nH]c5ccccc45)c3)cc12 | 9.4 |
| C=CC(=O)Nc1cc(-n2c(=O)ccc3cnc4ccc(-c5cn[nH]c5)cc4c32)ccc1C | 100 |

State the recorded kinase still bound, per cent of control for every item in the following list.
1. CCN(CC)CCCCNc1ncc2c(n1)N(C)C(=O)N(c1c(Cl)c(OC)cc(OC)c1Cl)C2
2. COc1cc(C(=O)N2CCC(N3CCN(C)CC3)CC2)ccc1Nc1ncc2c(n1)N(C)c1ccccc1C(=O)N2C
3. CCN1CCN(C(=O)Cc2ccc(Nc3ncc(F)c(Nc4ccc(C(=O)Nc5ccccc5Cl)cc4)n3)cc2)CC1
4. CCN(CC)CCCCNc1ncc2cc(-c3cc(OC)cc(OC)c3)c(NC(=O)NC(C)(C)C)nc2n1
5. COc1cc2ncnc(-n3nc(-c4ccccn4)nc3N)c2cc1OC

1. 100
2. 98
3. 80
4. 100
5. 100

State the recorded kinase still bound, per cent of control for every item in the following list.
1. NC(=O)Nc1cc(-c2cccc(F)c2)sc1C(=O)N[C@@H]1CCCNC1
2. CS(=O)(=O)N1CCN(Cc2cc3nc(-c4cccc5[nH]ncc45)nc(N4CCOCC4)c3s2)CC1

1. 0.85
2. 100

Reference source: the kinase profiling compilation of Christmann-Franck et al. (2016)
